Where do these numbers come from? They come from patent US20250195513A1.

molecular target: IRAK4 (Homo sapiens); construct: endogenous in cells; host or cells: Karpas299; assay: IRAK4 Degradation Assay with Human Serum (Karpas299, HTRF/TR-FRET); assay type: cell-based; conditions: Karpas-299 in human serum, 24 hrs treatment; read-out: IRAK4 degradtion with human serum assay DC50
Sequence (Q9NWZ3 whole entry): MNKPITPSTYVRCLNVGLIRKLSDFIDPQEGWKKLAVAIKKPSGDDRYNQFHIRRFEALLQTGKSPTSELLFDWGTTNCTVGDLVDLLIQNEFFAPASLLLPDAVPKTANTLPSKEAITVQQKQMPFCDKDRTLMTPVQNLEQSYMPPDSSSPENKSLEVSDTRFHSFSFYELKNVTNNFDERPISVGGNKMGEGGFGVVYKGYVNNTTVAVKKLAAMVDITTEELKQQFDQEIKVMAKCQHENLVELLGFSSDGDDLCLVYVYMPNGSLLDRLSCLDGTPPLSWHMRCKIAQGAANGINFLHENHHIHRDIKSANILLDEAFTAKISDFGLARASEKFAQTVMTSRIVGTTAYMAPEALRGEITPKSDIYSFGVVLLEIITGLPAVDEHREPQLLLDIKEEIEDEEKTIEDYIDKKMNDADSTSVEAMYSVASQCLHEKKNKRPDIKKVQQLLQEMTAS
REPORTED PROPERTY: DC50 (nM)

The following compounds have reported results that may help.
- CC(C)(O)c1cc2nn([C@H]3CC[C@H](N4CCN(C5CCN(c6cc(F)c([C@H]7CCC(=O)NC7=O)c(F)c6)CC5)C[C@@H]4CO)CC3)cc2cc1NC(=O)c1ccc2cc(C#N)cnn12: 11
- CC(C)(O)c1cc2nn(C3CCN([C@@H]4CCN(CCc5cc(F)c([C@H]6CCC(=O)NC6=O)c(F)c5)CC4(F)F)CC3)cc2cc1NC(=O)c1ccc2cc(C#N)cnn12: 16
- CC(C)(O)c1cc2nn([C@H]3CC[C@H](N4CCN(C5CCN(c6ccc(C7CCC(=O)NC7=O)cc6)CC5)CC4)CC3)cc2cc1NC(=O)c1ccc2cc(C#N)cnn12 (some centres unmarked): 10

P = CC(C)(O)c1cc2nn([C@H]3CC[C@H](N4CCN(CCCc5cc(F)c([C@H]6CCC(=O)NC6=O)c(F)c5)CC4)CC3)cc2cc1NC(=O)c1ccc2cc(C#N)cnn12
Q = CC(C)(O)c1cc2nn(C34CC(N5CCN(CCc6cc(F)c([C@H]7CCC(=O)NC7=O)c(F)c6)CC5)(C3)C4)cc2cc1NC(=O)c1ccc2cc(C#N)cnn12
R = CC(C)(O)c1cc2nn(C34CC(N5CCN(CCC6CCN(c7cc(F)c([C@H]8CCC(=O)NC8=O)c(F)c7)CC6)CC5)(C3)C4)cc2cc1NC(=O)c1ccc2cc(C#N)cnn12
IN: Highest DC50 first, then in falling order down to the smallest. Labels, requested order.
OUT: P, R, Q

A = COc1cc2nn([C@H]3CC[C@H](N4CCN(C(=O)C5CN(c6cc(F)c([C@H]7CCC(=O)NC7=O)c(F)c6)C5)CC4)CC3)cc2cc1NC(=O)c1ccc2cc(C#N)cnn12
B = C[C@@H]1CN([C@H]2C[C@@H](c3cc(F)c([C@H]4CCC(=O)NC4=O)c(F)c3)C2)CCN1[C@H]1CC[C@H](n2cc3cc(NC(=O)c4ccc5cc(C#N)cnn45)c(C(C)(C)O)cc3n2)CC1
IN: Of A and B , whose reported DC50 is numerically smaller? Field: selected label. Fill in the label of the entry you choose.
OUT: B
(B: 7.7 nM, A: 13 nM)

a = COC[C@H]1CN([C@H]2CC[C@H](n3cc4cc(NC(=O)c5ccc6cc(C#N)cnn56)c(C(C)(C)O)cc4n3)CC2)CCN1C(=O)[C@@H]1CCN(c2cc(F)c([C@H]3CCC(=O)NC3=O)c(F)c2)C1
b = Cc1nc(C2CCC(=O)NC2=O)ccc1N1CCC(N2CCC3(CCC(n4cc5cc(NC(=O)c6ccc7cc(C#N)cnn67)c(C(C)(C)O)cc5n4)CC3)CC2)CC1 (centres unmarked)
IN: Quick check, higher DC50 between a and b ? In your reply, give the label of the chosen option.
OUT: a

A = COC[C@H]1CN([C@H]2CC[C@H](n3cc4cc(NC(=O)c5ccc6cc(C#N)cnn56)c(C(C)(C)O)cc4n3)CC2)CCN1CC1CN(c2cc(F)c([C@H]3CCC(=O)NC3=O)c(F)c2)C1
B = COC[C@H]1CN([C@H]2CC[C@H](n3cc4cc(NC(=O)c5ccc6cc(C#N)cnn56)c(C(C)(C)O)cc4n3)CC2)CCN1C1CCN(c2ccc(C3CCC(=O)NC3=O)nc2C)CC1 (some centres unmarked)
IN: Looking at A and B , which one comes out lower in DC50 terms? Kindly give the label for the entry you pick.
OUT: B
(B: 5.2 nM, A: 12 nM)
